Reported Kd is given for each of the following binders.
- measured on: T1, human FOLR1-HIS (human, UniProt P15328 25-233)
- T1 construct: Analyte of the Biacore assay; also called FolRα-ECD; extracellular domain of FOLR1; not shown: HIS tag
- protocol details: SPR (Biacore), antibody captured on anti-Fc, human FOLR1-HIS analyte, 25 C

binder | Kd [nM]
SRP2060-B01 (antibody, V domains shown, also called Antibody 58) VH: EVQLLESGGGLVQPGGSLRLSCALSGFSLSTFGMGVGWVRQATGKGLEWVSHIWWDDDKYYHPALKGRFTISKDNSKNTVHLQMNSLRAEDTAVYYCGRNHFPHYYGSSHWYFNVWGQGTTVTVSS VL: DIQMTQSPSTLSASVGDRVTITCKASQDINSYLSWYQQKPGKAPKLLIYRANRLVDGVPSRFSGSGSGTEFTLTISSLQPDDFATYYCLQYDEFPYTFGGGTKVEIK | 2.62
SRP2060-E05 (antibody, V domains shown, also called Antibody 57) VH: EVQLLESGGGLVQPGGSLRLSCAFSGFSLSTFGMGVGWVRQAPGKGLEWVSHIWWDDDKYYHPALKGRFTVSKDNSKNTVYLQMNSLRAEDTAVYYCGRNHFPHYYGSSHWYFNVWGQGTTVTVSS VL: EIVMTQSPATLSLSPGERATLSCKASQDINSYLSWYQQKPGQAPRLLIYRANRLVDGIPARFSGSGSGTDYTLTISSLEPEDFAVYYCLQYDEFPYTFGGGTKVEIK | 2.92
SRP2060-A06 (antibody, V domains shown, also called Antibody 59) VH: EVQLLESGGGLVQPGGSLRLSCAFSGFSLSTFGMGVGWVRQAPGKGLEWVGHIWWDDDKYYYPALKGRFTISKDNSKNTVYLQMNSLRAEDTAVYYCGRNHFPHYYGSSHWYFDVWGQGTTVTVSS VL: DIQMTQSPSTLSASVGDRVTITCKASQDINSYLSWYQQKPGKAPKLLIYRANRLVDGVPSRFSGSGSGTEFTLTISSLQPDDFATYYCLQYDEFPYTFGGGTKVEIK | 13.3
SRP2060-E10 (antibody, V domains shown, also called Antibody 56) VH: EVQLLESGGGLVQPGGSLRLSCAFSGFSLSTFGMGVGWVRQAPGKGLEWVSHIWWDDDKYYHPALKGRFTISKDNSKNTVYLQMNSLRAEDTAVYYCGRNHFPHYYGSSHWYFNVWGQGTTVTVSS VL: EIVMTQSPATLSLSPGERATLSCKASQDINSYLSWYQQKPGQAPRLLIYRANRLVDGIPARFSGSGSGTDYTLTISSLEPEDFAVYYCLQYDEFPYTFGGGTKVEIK | 2.06
